- cond: in acetone, 293.15 K
property: solubility (mole fraction)

[Q] Dear colleague, I am looking for the recorded solubility (mole fraction) of the following molecule: CN1CCN(c2cc3c(cc2F)c(=O)c(C(=O)O)cn3-c2ccc(F)cc2)CC1
[A] 0.0052

====

- cond: in ethanol, 293.15 K
property: solubility (mole fraction)
Please reply with the number alone, leaving off any unit.

[Q] Dear colleague, I am looking for the recorded solubility (mole fraction) of the following compound: CN1CCN(c2cc3c(cc2F)c(=O)c(C(=O)O)cn3-c2ccc(F)cc2)CC1
[A] 0.0387

====

- cond: in ethanol, 310.15 K
property: solubility (mole fraction)
Please reply with the number alone, leaving off any unit.

[Q] Dear colleague, I am looking for the recorded solubility (mole fraction) of the following molecule: CN1CCN(c2cc3c(cc2F)c(=O)c(C(=O)O)cn3-c2ccc(F)cc2)CC1
[A] 0.0795
